FYI, the data here is from PubChem BioAssay (NCI).

Assay: NCI Yeast Anticancer Drug Screen. Data for the mlh1 rad18 strain (AID 175)
Details: S. cerevisiae mlh1 rad18 strain growth inhibition; at 50.0 µM
About 79,000 compounds went through this panel and 15% of them were active in at least one assay; those are over-represented in the sample as a whole. The source made the active and inactive calls. Cut-off read from the data, not from the text of the source: active = growth inhibition above about 70%; inactive = the rest.
Classes to choose from: 1 for active, 0 for inactive

Examples from the recorded data:
{"compound": "O=C(NC(O)(C(F)(F)F)C(F)(F)F)c1ccccc1", "class.assignment": 0}
{"compound": "COC(=O)c1c(-c2ccc(OC)c(OC)c2)cn(C)c1C", "class.assignment": 0}
{"compound": "COc1ccc(CCNC(=O)c2ccc(CSc3ccc(Cl)cc3)o2)cc1OC", "class.assignment": 0}
{"compound": "CCOC(Cn1ccccc1=N)OCC", "class.assignment": 0}
{"compound": "CC1(C)CCC2(C)CCC3(C)C(=CCC4C5(C)CCC(O)C(C)(C)C5CCC43C)C2C1 (configuration not stated)", "class.assignment": 0}

How did this test come out for O=C(c1ccncc1)C(C(c1ccccc1)N1CCOCC1)N1CCOCC1 (configuration not stated) ? 0

* * *

Please go through the items and note down their growth inhibition.
Test: NCI Yeast Anticancer Drug Screen. Data for the sgs1 mgt1 strain (AID 161);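 note: 0% = growth of cultures given vehicle only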
Conditions: S. cerevisiae sgs1 mgt1 strain, at 50.0 µM, hits give high values
This is part of a sample that, as a whole, favours compounds with a hit. Of some 79,000 tested, about 15% had one in any assay. Calls of active or inactive are those of the source. Cut-off read from the data, not from the text of the source: active = growth inhibition above about 70%; inactive = the rest.

Guide cases for growth inhibition, answers given:
{"compound": "c1cnc2cccnc2c1", "result": "-14.7% (inactive)"}
{"compound": "COC(=O)C1CC(=O)N(C)c2sc(C)c(C)c2C1=O (stereo not given)", "result": "89% (active)"}

Field: growth inhibition. Fill in for each record below.
1. CC(C)CCCC(C)C1CCC2C3CC=C4CCCCC4(C)C3CCC12C (stereo not given)
2. CC(=O)NNC(=S)/N=C\c1c(O)c2ccccc2oc1=O
3. Cc1ccc(S(=O)(=O)OC2CCC(C(C)(C)C)C(Cl)C2)cc1 (stereo not given)
4. C[C@H]1S[C@H](c2c(F)cccc2F)n2c1nc1ccccc12
5. COc1ccccc1-n1c(NN)nc2ccc(Br)cc2c1=O
6. O=C(CCc1n[nH]c(=S)o1)Nc1ccccc1
7. C/C(CC(=O)Nc1ccc(NC(=O)/C(C)=N/NS(=O)(=O)c2ccc(C)cc2)cc1)=N\NS(=O)(=O)c1ccc(C)cc1

1. -3.85% (inactive)
2. -34.2% (inactive)
3. 3.2% (inactive)
4. 43.8% (inactive)
5. 27.4% (inactive)
6. 30.4% (inactive)
7. -12.8% (inactive)

* * *

Assay: NCI Yeast Anticancer Drug Screen. Data for the rad50 strain (AID 155);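 note: 0% = growth of vehicle-only cultures of the same strain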
Conditions: S. cerevisiae rad50 strain growth inhibition; at 50.0 µM; hits give high values
Compounds without any hit were thinned out: in the full panel of roughly 79,000, 15% have a hit. Calls of active or inactive are those of the source. Cut-off read from the data, not from the text of the source: active = growth inhibition above about 70%; inactive = the rest.
Please go through the items and note down their growth inhibition.

{"compound": "C/C(CC(=O)Nc1ccc(NC(=O)/C(C)=N/NS(=O)(=O)c2ccc(C)cc2)cc1)=N\\NS(=O)(=O)c1ccc(C)cc1", "growth inhibition": "16.2% (inactive)"}
{"compound": "Cc1cc(S(=O)(=O)Nc2nc(N)nc(N3CCOCC3)n2)c(SCC(=O)O)cc1Cl", "growth inhibition": "5.75% (inactive)"}
{"compound": "O=C(/C=C/c1ccc(OCCCOc2ccc(/C=C/C(=O)c3ccccc3)cc2)cc1)c1ccccc1", "growth inhibition": "14.3% (inactive)"}
{"compound": "CC(C)C1CCC(=O)CC1", "growth inhibition": "9.9% (inactive)"}
{"compound": "O=c1c2c(sc3ccccc13)NCN(CCc1ccccc1)C2", "growth inhibition": "-10.7% (inactive)"}
{"compound": "C[n+]1cc(I)cc2ccccc21", "growth inhibition": "3.85% (inactive)"}

Field: growth inhibition. Fill in for each record below.
1. COC(=O)C1(C(=O)OC)C/C(C)=C(/C)SCCCS1
2. C/C(=N/OC1=CC(=O)CC(C)(C)C1)c1ccccc1
3. CS(=O)(=O)OCC(O)C(O)C(OS(C)(=O)=O)C(O)COS(C)(=O)=O (centres undefined)
4. CC1(C)CC(=O)C(/C=N/C(=S)NCc2ccccc2)=C(O)C1

["-12.7% (inactive)", "1.8% (inactive)", "7.1% (inactive)", "-35.4% (inactive)"]

* * *

Experiment: NCI Yeast Anticancer Drug Screen. Data for the bub3 strain (AID 167)
Conditions: S. cerevisiae bub3 mutant strain, at 50.0 µM, hits give high values
The panel holds about 79,000 compounds, 15% with a hit somewhere; the sample as a whole holds those more often.
Please go through the items and note down their growth inhibition.
Give bare numbers, in %.

Guide cases for growth inhibition, answers given:
{"compound": "O=C1OC(c2ccc([N+](=O)[O-])cc2)=N/C1=C\\c1cccc([N+](=O)[O-])c1", "measurement.type": "growth inhibition", "measured.number": 22.1}
{"compound": "CCOC(=O)CC(=O)Nc1cccc2sc3ncccc3c(=O)c12", "measurement.type": "growth inhibition", "measured.number": 0.7}
{"compound": "Cc1c(Cl)c(N)c(Cl)c(Cl)c1Cl", "measurement.type": "growth inhibition", "measured.number": 28.6}
{"compound": "ClC(Cl)C1OCCCO1", "measurement.type": "growth inhibition", "measured.number": 12.2}
{"compound": "CN1C(=O)C(C)(O)Sc2ccccc21 (configuration not stated)", "measurement.type": "growth inhibition", "measured.number": -9.2}
{"compound": "Brc1cnc2nc(Cc3ccccc3)[nH]c2c1", "measurement.type": "growth inhibition", "measured.number": 27}
{"compound": "C/C(C=C(C#N)C#N)=C\\c1ccccc1", "measurement.type": "growth inhibition", "measured.number": 36.9}
{"compound": "O=C(O)CCCCCC1=CCCCC1", "measurement.type": "growth inhibition", "measured.number": 24.6}

Field: growth inhibition. Fill in for each record below.
1. CC(C)(C)/C(=N\O)c1ccccc1
2. N#C/C(=C\NC(N)=S)c1nc2ccccc2s1
3. CC(=O)C1=C(O)C(CSCc2ccccc2)NC1=O (configuration not stated)
4. C=CCOCn1cc(C)c(=O)[nH]c1=O

[-17.4, -4.25, 15.1, 6.5]

* * *

Assay: NCI Yeast Anticancer Drug Screen. Data for the cln2 rad14 strain (AID 165);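 note: 0% = growth equal to vehicle treated cultures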
Conditions: S. cerevisiae cln2 rad14 strain, at 50.0 µM, hits give high values
The panel holds about 79,000 compounds, 15% with a hit somewhere; the sample as a whole holds those more often.
# growth inhibition >= 10% gives Fulfilled, anything below gives Not fulfilled

Examples from the recorded data:
{"compound": "O=c1[nH]nc(Cc2ccccc2)n1/N=C\\c1ccccc1", "class.assignment": "Not fulfilled"}
{"compound": "O=C(O)C1CC[N-]CC1.O=C(O)C1CC[N-]CC1.[NH2-].[NH2-].[Pt+4]", "class.assignment": "Fulfilled"}
{"compound": "CCOc1c(OC)cc(-c2nnc(SCCN(CC)CC)o2)cc1OC", "class.assignment": "Fulfilled"}
{"compound": "O=C1C(Cl)N(c2ccc(Cl)cc2Cl)C1c1c[nH]c2ccccc12 (configuration not stated)", "class.assignment": "Not fulfilled"}
{"compound": "COC(=O)C=Cc1ccc2nncnc2c1 (mixture of isomers)", "class.assignment": "Fulfilled"}
{"compound": "CC(=O)CCn1c(=S)sc2ccccc21", "class.assignment": "Fulfilled"}
{"compound": "COC(=O)/C=C(\\C)Nc1cccc([N+](=O)[O-])c1", "class.assignment": "Not fulfilled"}
{"compound": "C=CCNC(=S)/N=C/C(C(=O)Nc1ccccc1OC)=C(\\C)O", "class.assignment": "Not fulfilled"}

Evaluate CCOc1ccc(C(C)(CC)c2cc3c(cc2OC)OCO3)cc1 (configuration not stated) : growth inhibition at minimum 10%? Not fulfilled

Now consider COC(=O)c1ccc(C)[n+](C2OC(COC(=O)c3ccccc3)C(OC(=O)c3ccccc3)C2OC(=O)c2ccccc2)c1 (configuration not stated) . Not fulfilled

* * *

Experiment: NCI Yeast Anticancer Drug Screen. Data for the rad50 strain (AID 155);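 note: 0% = growth of vehicle-only cultures of the same strain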
Conditions: S. cerevisiae rad50 strain growth inhibition; at 50.0 µM; hits give high values
This is part of a sample that, as a whole, favours compounds with a hit. Of some 79,000 tested, about 15% had one in any assay.
Please go through the items and note down their growth inhibition.
Numbers only, in %.

Guide cases for growth inhibition, answers given:
{"compound": "COC1=CC(=O)C=C(OC)C1=O", "measured.number": -2.55}
{"compound": "CCCCCCCCCCCC(=O)Nc1ccc(NC(C)=O)cc1", "measured.number": 8.25}
{"compound": "COc1ccccc1NC(=O)N1CCN(c2cccc(C)c2)CC1", "measured.number": 4.5}

Field: growth inhibition. Fill in for each record below.
1. CCOC(=O)c1ccc(-c2cccs2)[nH]1
2. O=NNc1ccc(S(=O)(=O)c2ccccc2)cn1
3. Cc1cc(S(=O)(=O)Nc2nc(N)n(C)n2)c(S)cc1Cl
4. CCOC(=O)Nc1cc(Cl)c2ncn(C(=O)OCC)c2n1

1. -35.3
2. 49.1
3. -19.1
4. 40.3

Field: growth inhibition. Fill in for each record below.
1. Clc1ccc(/C=C/c2nc3ccccc3s2)cc1Cl
2. CCCCCCCC#CC1(CCCC)Sc2ccccc2N1C (stereo unspecified)
3. N#CCN1c2ccccc2CCC1Cl (stereo unspecified)
4. COc1ccc(OCOCOc2ccc(OC)cc2)cc1
5. N#CC1CCCCCCCCCCC(=O)N(CCCl)C1=O (stereo unspecified)
6. O=C/C(Cl)=C\Nc1ccc(C(=O)O)cc1

1. -13.8
2. 15.3
3. -10.9
4. -8.05
5. -4.25
6. -0.25

Field: growth inhibition. Fill in for each record below.
1. N/N=C1\C(=O)N(Cc2ccccc2)C(=O)C1C(=O)NCc1ccccc1 (stereo unspecified)
2. COC(=O)NN=C1C(C)(C)C(=O)C1(C)C
3. NC(=O)C(CNCc1ccccc1)NCc1ccccc1 (stereo unspecified)

1. 7.5
2. -20.7
3. -1.5

Field: growth inhibition. Fill in for each record below.
1. CN(C)c1ccc(/C=N/NC=O)c(Cl)c1
2. COC1=NCc2ccccc2-c2ccccc21

0.15
-16.1
